Reference source for all entries: patent US20230047413A1

- Measurement target: T1, PHF-tau (paired helical filament tau isolated from Alzheimer's disease brain) (human, UniProt P10636-8 2-441, limits assumed, hyper-phosphorylated, aggregated; sites not listed for the preparation)
- T1 construct: also called enriched PHF-tau; ePHF-tau
- T1 sequence (P10636 other isoform, or with tags, fused parts or gaps limits assumed): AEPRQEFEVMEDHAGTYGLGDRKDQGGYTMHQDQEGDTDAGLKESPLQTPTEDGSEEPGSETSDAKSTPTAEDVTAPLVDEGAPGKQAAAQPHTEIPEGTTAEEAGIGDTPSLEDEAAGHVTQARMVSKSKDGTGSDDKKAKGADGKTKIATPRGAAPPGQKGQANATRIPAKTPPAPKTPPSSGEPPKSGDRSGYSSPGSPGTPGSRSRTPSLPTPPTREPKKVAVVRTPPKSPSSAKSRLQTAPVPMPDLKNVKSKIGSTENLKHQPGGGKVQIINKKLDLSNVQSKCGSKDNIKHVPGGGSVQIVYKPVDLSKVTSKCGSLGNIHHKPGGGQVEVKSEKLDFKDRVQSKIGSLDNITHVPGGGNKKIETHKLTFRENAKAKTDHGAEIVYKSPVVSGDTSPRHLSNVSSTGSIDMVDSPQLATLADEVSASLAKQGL
- Assay overview: SPR ProteOn, PHF-tau capture-coupled via HT7, bivalent model
hey, just use TRUE if measured Kd is less than 0.04 nM, otherwise FALSE

These recorded examples may help you get a feel for the data.
B352 (IgG4 mAb) (antibody, V domains shown, IgG4 variant of B296 with the same variable regions; also called B296 as hIgG4) VH: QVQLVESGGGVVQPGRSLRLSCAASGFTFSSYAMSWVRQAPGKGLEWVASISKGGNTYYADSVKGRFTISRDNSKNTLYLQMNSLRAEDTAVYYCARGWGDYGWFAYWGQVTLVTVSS VL: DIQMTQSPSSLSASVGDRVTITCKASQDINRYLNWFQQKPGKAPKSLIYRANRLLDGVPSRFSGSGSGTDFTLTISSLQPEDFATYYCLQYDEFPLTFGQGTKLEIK	FALSE
B235 (antibody, human IgG1, V domains shown, Humanized (HFA) PT3 variant, human IgG1/kappa; also called VH91/VL77) VH: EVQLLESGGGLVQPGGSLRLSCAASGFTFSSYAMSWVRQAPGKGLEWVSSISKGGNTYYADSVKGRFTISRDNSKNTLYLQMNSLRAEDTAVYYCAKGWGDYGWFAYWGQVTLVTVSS VL: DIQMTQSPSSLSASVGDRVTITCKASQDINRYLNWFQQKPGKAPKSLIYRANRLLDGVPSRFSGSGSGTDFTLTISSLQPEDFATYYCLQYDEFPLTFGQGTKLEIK	FALSE
B296 (antibody, human IgG1, kappa, V domains shown, Humanized PT3, human IgG1/kappa; also called VH92/VL77; HFA-PT3) VH: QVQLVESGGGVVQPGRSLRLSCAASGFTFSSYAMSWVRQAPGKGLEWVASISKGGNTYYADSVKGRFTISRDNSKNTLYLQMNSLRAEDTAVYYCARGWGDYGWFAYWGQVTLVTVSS VL: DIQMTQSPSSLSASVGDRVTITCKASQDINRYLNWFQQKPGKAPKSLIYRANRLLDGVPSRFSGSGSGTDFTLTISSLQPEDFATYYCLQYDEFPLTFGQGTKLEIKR	TRUE
B252 (antibody, human IgG1, V domains shown, Humanized (HFA) PT3 variant, human IgG1/kappa; also called VH93/VL80) VH: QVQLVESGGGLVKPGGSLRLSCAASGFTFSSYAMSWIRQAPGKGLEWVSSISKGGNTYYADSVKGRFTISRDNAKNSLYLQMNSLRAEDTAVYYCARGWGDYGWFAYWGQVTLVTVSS VL: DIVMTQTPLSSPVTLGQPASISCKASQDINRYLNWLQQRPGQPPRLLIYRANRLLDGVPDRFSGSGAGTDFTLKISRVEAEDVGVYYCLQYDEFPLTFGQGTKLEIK	TRUE
B297 (antibody, human IgG1, V domains shown, Humanized (HFA) PT3 variant, human IgG1/kappa; it is built from VL77 with D56S; also called VH93/VL78) VH: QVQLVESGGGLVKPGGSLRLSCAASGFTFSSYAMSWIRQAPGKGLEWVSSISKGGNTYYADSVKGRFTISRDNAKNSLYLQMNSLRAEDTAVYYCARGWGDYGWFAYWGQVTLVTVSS VL: DIQMTQSPSSLSASVGDRVTITCKASQDINRYLNWFQQKPGKAPKSLIYRANRLLSGVPSRFSGSGSGTDFTLTISSLQPEDFATYYCLQYDEFPLTFGQGTKLEIK	FALSE
B282 (antibody, human IgG1, V domains shown, Humanized (HFA) PT3 variant, human IgG1/kappa; also called VH93/VL77) VH: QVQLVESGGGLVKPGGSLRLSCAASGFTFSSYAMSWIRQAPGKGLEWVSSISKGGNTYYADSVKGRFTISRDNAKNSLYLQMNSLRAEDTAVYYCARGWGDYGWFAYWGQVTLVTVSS VL: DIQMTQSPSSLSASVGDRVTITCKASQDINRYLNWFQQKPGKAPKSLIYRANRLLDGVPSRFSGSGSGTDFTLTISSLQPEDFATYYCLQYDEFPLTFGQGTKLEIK	FALSE

Continue with the binder presented below.
Qu. Hello, I'm reviewing records and need to know if Kd of B280 (antibody, human IgG1, V domains shown, Humanized (HFA) PT3 variant, human IgG1/kappa; also called VH91/VL80) VH: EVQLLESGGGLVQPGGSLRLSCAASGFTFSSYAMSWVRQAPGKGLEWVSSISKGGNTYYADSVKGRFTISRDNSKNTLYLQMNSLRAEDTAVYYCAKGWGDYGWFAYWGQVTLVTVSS VL: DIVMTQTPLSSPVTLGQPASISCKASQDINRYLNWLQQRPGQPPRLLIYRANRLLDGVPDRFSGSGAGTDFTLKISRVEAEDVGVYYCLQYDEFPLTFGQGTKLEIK is below 0.04 nM. Could you check?
Ans. FALSE
